Data origin: PubChem BioAssay (NCI)

# reported TGI; entries follow
# Test system: NCI-H522 lung
# Assay Text: NCI tumour cell line growth inhibition, 48 h

# Compound, Subject Of Test, Inequality Symbol, TGI, µM
rows = [
    ("CC(=O)Oc1ccc2c(c1)CC[C@@H]1C2CC[C@]2(C)C(=O)NC(=O)CC12 (stereo not given in full)", "NCI-H522 lung", ">", 100),
    ("CC1(C2CCC3(C)OC3C2)CO1 (stereo not given)", "NCI-H522 lung", ">", 100),
    ("CC(=O)C1C(=O)N(C(C)C)C[C@@H]2CCC(=O)C[C@H]12 (stereo not given in full)", "NCI-H522 lung", ">", 100),
    ("CC(=O)O[C@H]1CC[C@@]2(C)[C@H](CC[C@@H]3[C@@H]2CC[C@]2(C)[C@@H](c4ccc(=O)oc4)C[C@H]4O[C@]342)C1", "NCI-H522 lung", "=", 1.23),
    ("CSC1=NCC2(S1)c1ccccc1N(C(=O)OC(C)(C)C)C2N1CCCCC1 (stereo not given)", "NCI-H522 lung", ">", 100),
    ("CC(C)OC1OC(CO)C(O)CC1n1cc(F)c(=O)[nH]c1=O (stereo not given)", "NCI-H522 lung", "=", 37.8),
    ("CCOC(=O)[C@H]1Nc2ccccc2C2c3ccccc3CC21 (stereo not given in full)", "NCI-H522 lung", ">", 100),
    ("CCOC(=O)C1(C(F)(F)F)N=C(CC)OC(N2CCOCC2)=N1 (stereo not given)", "NCI-H522 lung", ">", 100),
    ("O=[N+]([O-])c1ccc(C(Nc2ccccc2)c2ccc3cccnc3c2O)cc1 (stereo not given)", "NCI-H522 lung", "=", 28.6),
    ("Cc1ccc(C(C)C)cc1NC(=O)Nc1ccc([N+](=O)[O-])cc1", "NCI-H522 lung", "=", 3.97),
]

* * *

# System: SNB-75 CNS
# Assay Text: NCI tumour cell line growth inhibition, 48 h

# Compound, TGI
data = [
    ("N/C(=N\\Nc1ccc(S(N)(=O)=O)cc1)c1cnccn1", "> 100 µM"),
    ("C=[CH][Sn]([CH]=C)([O]c1cccc2cccnc12)[O]c1cccc2cccnc12", "14 µM"),
    ("CCCCCCCCCCCCOP(N)(=O)OCCCCCCCCCCCC", "> 100 µM"),
    ("CC(=O)O[C@H]1CC[C@@]2(C)[C@H](CC[C@@H]3[C@@H]2CC[C@]2(C)[C@@H](c4ccc(=O)oc4)C[C@H]4O[C@]342)C1", "3.45 µM"),
    ("COc1ccccc1NC(=O)C(CC(C(=O)Nc1ccccc1OC)/C(C)=N/Nc1ccc([N+](=O)[O-])cc1[N+](=O)[O-])/C(C)=N/Nc1ccc([N+](=O)[O-])cc1[N+](=O)[O-] (stereo not given)", "> 100 µM"),
]

* * *

# System: OVCAR-3 ovarian
# Assay Text: NCI tumour cell line growth inhibition, 48 h
Recorded TGI values for a group of compounds are listed next.

# Compound, TGI
measured = [
    ("CC1CC[C@]2(C(=O)O)CCC3(C)C(=CCC4[C@@]5(C)CC[C@H](OS(=O)(=O)c6ccccc6)C(C)(C)C5CC[C@]43C)[C@@H]2[C@H]1C (some centres undefined)", "> 100 µM"),
    ("C#CCC1(C(=O)OCC)C(=O)c2ccccc2N(C)C1=O (centres undefined)", "> 100 µM"),
    ("Cn1c2ccccc2n2c3ncccc3c(=S)c(C#N)c12", "> 100 µM"),
    ("C=C(C)[C@@H]1CC[C@]2(C(=O)O)CC[C@]3(C)[C@H](CCC4[C@@]5(C)CC[C@H](C(=O)/C=C/c6ccc(O)c(O)c6)C(C)(C)[C@@H]5CC[C@]43C)[C@@H]12 (some centres undefined)", "22.5 µM"),
    ("CN(C)C(=S)Oc1ccc2ccc(=O)oc2c1", "> 100 µM"),
    ("CC(C)(C)C1CC[C@H](O)[C@H]([C@H](O)CC2CC(=O)N(c3ccccc3)C(=O)C2)C1 (some centres undefined)", "> 100 µM"),
    ("C#CCN(Cc1ccc2nc(N)[nH]c(=O)c2c1)c1ccc(C(=O)NC(CCC(=O)O)C(=O)O)cc1 (centres undefined)", "> 100 µM"),
    ("CC1OC2OC3C(OCC(O)C3O)OC(=O)[C@]34CCC(C)(C)CC3C3=CCC5[C@@]6(C)C[C@H](O)[C@H](OC7OC(CO)C(O)C(O)C7OC7OCC(OC(=O)CC(C)(O)CC(=O)OC1C(OC1OC(CO)C(O)C(O)C1O)C2O)C(O)C7O)[C@@](C)(CO)C6CC[C@@]5(C)[C@]3(C)CC4 (some centres undefined)", "19.3 µM"),
    ("CC(C)C1(O)C(=O)N(c2c(F)c(F)c(F)c(F)c2F)C(=S)N1CCSc1ccccc1 (centres undefined)", "30.1 µM"),
    ("NS(=O)(=O)c1ccc(NNc2c3ccccc3nc3c(C(=O)Nc4ccc(S(=O)(=O)Nc5ncccn5)cc4)cccc23)cc1", "> 25 µM"),
    ("Cc1nc2ccc(Cl)cc2c2c1CCN2c1ccccc1", "44.1 µM"),
    ("NCCOCC(N)C(=O)O (centres undefined)", "> 100 µM"),
    ("FC1OC2OC1C(OCc1ccccc1)C(OCc1ccccc1)C2OCc1ccccc1 (centres undefined)", "> 100 µM"),
    ("CC1CCC2N(C1)CC1C3(O)CC45OC6(O)C(O)CCC4(C)C6CCC5C3(O)CC(O)C1(O)C2(C)O (centres undefined)", "> 100 µM"),
    ("CCCNc1ncnc2[nH]ncc12", "> 100 µM"),
    ("NCCC1CN(C(=O)OCc2ccccc2)c2ccccc21 (centres undefined)", "45.6 µM"),
    ("CSc1ccc(C(=O)C(=O)c2ccc(SC)s2)s1", "> 10 µM"),
    ("N=C1C=C(N)C(=O)c2[nH]c(=O)ccc21", "2.96 µM"),
    ("CC(=O)N(Cc1ccccc1)c1ccccc1I(=O)=O", "> 100 µM"),
]

* * *

# System: A549 NSCLC
# Assay Text: NCI tumour cell line growth inhibition, 48 h

# Molecule, Subject Of Test, TGI
data = [
    ("NC(=O)CO/N=C1/C(c2c(O)[nH]c3ccccc23)=Nc2ccccc21", "A549 NSCLC", "> 100 µM"),
    ("CCN(CC)CCN(C(=O)C(C)(C)C)c1ccccc1N", "A549 NSCLC", "> 100 µM"),
    ("O=C1C=CC(=O)c2c(O)c(N3CCN(CCOCCO)CC3)c(Cl)c(O)c21", "A549 NSCLC", "7.87 µM [middle of 4 runs]"),
    ("Cc1cc(Cl)cc2c1NC(=O)C2=O (tested in a mixture with another compound)", "A549 NSCLC", "> 100 µM"),
    ("Nc1nc(Cl)cc(NCC2(O)CCCC2)n1", "A549 NSCLC", "> 100 µM"),
    ("N#Cc1nc(C#N)n(C(=O)c2ccccc2)c1NC(=O)c1ccccc1", "A549 NSCLC", "> 100 µM"),
    ("O=S(=O)(c1ccc(O)c(C=Nc2ccc(Cl)cc2)c1)c1ccc(O)c(C=Nc2ccc(Cl)cc2)c1", "A549 NSCLC", "> 100 µM"),
    ("Cn1c2ccccc2n2c3ncccc3c(=S)c(C#N)c12", "A549 NSCLC", "> 100 µM"),
    ("O=C1CC(n2cccc2)c2c(Br)sc(Br)c21 (stereo unspecified)", "A549 NSCLC", "61.8 µM"),
    ("COc1cccc(NC(=O)C(=O)C(C(C)=O)c2nc3ccc(Cl)cc3[nH]c2=O)c1 (stereo unspecified)", "A549 NSCLC", "> 100 µM"),
    ("CC1(C)CC[C@]2(C(N)=O)CC[C@]3(C)C(=CC[C@@H]4[C@@]5(C)C/C(=C/c6ccncc6)C(=O)C(C)(C)[C@@H]5CC[C@]43C)[C@@H]2C1", "A549 NSCLC", "8.22 µM"),
    ("COC(=O)CC(C(C(C)=O)C(=O)OCc1ccccc1)N1C(=O)OCC1c1ccccc1 (stereo unspecified)", "A549 NSCLC", "> 100 µM"),
    ("C=CC1CN2CCC1CC2C(O)c1ccnc2ccccc12 (stereo unspecified)", "A549 NSCLC", "> 100 µM"),
    ("COc1cccc(C2NC(=S)NC(C)=C2C(=O)Nc2ccc(Cl)c(Cl)c2)c1 (stereo unspecified)", "A549 NSCLC", "> 50 µM"),
    ("O=[N+]([O-])c1cccnc1-n1cnc2ccccc21", "A549 NSCLC", "> 100 µM"),
    ("O=c1[nH]c2ccccc2n1-c1n[nH]c2ccccc12", "A549 NSCLC", "> 100 µM"),
    ("CC1=C(C(=O)Nc2ccc(Cl)c(Cl)c2)C(c2ccccc2O)NC(=O)N1 (stereo unspecified)", "A549 NSCLC", "> 50 µM"),
    ("NCCC1CN(C(=O)OCc2ccccc2)c2ccccc21 (stereo unspecified)", "A549 NSCLC", "> 53.6 µM"),
    ("COc1ccc2nc3ccccc3c(NCCCCN(C)CCCl)c2c1", "A549 NSCLC", "1.87 µM"),
    ("C=[CH][Sn]([CH]=C)([O]c1cccc2cccnc12)[O]c1cccc2cccnc12", "A549 NSCLC", "13.9 µM"),
    ("CCOC(=O)[C@H]1Nc2ccccc2C2c3ccccc3CC21 (stereo partly specified)", "A549 NSCLC", "> 100 µM"),
]
